- EXPERIMENTAL SYSTEM: Rap guanine nucleotide exchange factor 4 (Homo sapiens) (UniProt Q8WZA2)
- Sequence (Q8WZA2 whole entry, looked up): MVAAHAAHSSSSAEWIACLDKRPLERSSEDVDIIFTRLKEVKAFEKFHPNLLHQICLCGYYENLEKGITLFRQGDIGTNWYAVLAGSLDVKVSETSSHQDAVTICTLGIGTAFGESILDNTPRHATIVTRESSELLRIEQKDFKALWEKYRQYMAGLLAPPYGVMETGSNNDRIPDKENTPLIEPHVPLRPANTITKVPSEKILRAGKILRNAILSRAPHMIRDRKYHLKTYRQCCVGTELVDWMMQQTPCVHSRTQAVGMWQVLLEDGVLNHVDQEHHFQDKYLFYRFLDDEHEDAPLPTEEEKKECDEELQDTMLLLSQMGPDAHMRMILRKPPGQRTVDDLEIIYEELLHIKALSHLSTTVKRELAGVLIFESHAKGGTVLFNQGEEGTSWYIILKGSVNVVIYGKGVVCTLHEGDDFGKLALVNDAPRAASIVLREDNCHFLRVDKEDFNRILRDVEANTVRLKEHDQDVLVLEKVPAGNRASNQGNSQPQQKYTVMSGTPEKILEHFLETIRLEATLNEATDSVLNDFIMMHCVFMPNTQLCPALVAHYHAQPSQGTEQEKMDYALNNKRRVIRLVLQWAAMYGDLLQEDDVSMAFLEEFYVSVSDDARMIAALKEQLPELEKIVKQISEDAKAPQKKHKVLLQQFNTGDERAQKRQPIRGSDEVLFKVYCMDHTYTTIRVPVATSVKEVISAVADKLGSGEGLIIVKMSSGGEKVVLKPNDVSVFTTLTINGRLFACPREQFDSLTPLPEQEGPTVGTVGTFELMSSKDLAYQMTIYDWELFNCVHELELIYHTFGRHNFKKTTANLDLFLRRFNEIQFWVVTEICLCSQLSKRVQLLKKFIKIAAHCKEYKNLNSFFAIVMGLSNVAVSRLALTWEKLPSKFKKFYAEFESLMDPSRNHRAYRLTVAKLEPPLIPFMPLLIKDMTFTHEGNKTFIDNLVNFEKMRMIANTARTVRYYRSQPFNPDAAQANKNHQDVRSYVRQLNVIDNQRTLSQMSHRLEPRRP
- EXPERIMENT DESCRIPTION: Confirmatory qHTS for agonist of cAMP-regulated guanine nucleotide exchange factor 4 (EPAC2) (AID 1645884);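 further: nucleotide exchange releases bodipy-GDP from Rap1 and this lowers its fluorescence; on the % scale 0 is the no-effect control and ±100 the full control effect; nearly all actives have a fitted effect of over 65% in size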
- CONDITION INFO: EPAC2 GEF activity, Rap1B-BODIPY-GDP fluorescence; series mostly up to 154 µM
Inconclusive results are not listed. Calls of active or inactive are those of the source. The call rests on the fitted dose curve; in most records, active means well fitted activation curve with a large enough effect; inconclusive means small, poorly fitted or top-dose-only effect; inactive means no such curve, though single readings can be large or run the other way.
MEASURED PARAMETER: activation

CC1Sc2ccc(C(=O)OCc3ccccc3Cl)cc2NC1=O (stereo not given) : inactive
Cc1cc2c(c(=O)o1)C(c1ccc([N+](=O)[O-])o1)C(C#N)=C(N)O2 (stereo not given) : inactive
COc1cc(S(=O)(=O)Nc2ccc(C)cc2)ccc1N=Cc1c(C)c(C#N)c(=O)n(C)c1O : inactive

###

- EXPERIMENT DESCRIPTION: qHTS Assay for Lipid Storage Modulators (AID 1519); further: on the % scale 0 is the no-effect control and ±100 the full control effect
- CONDITION INFO: Drosophila S3 cells, BODIPY lipid droplet/cell ratio, laser cytometry; at 57.5 µM (top of the series); cells loaded with oleic acid
Results filed as inconclusive are left out.
MEASURED PARAMETER: activity change, negative = inhibition (%)

Cc1cc(O)c(C=O)c2c1C(=O)Oc1c(COC(=O)/C=C/C(=O)O)c(O)c(C(=O)O)c(C)c1O2 : 4.28
CN1CCC2(CC1)CCN(C(=O)c1ccncc1)CC2 : -3.65
C=C1CC[C@@H]2O[C@@]2(C)CC[C@H]2[C@H]1CC2(C)C : 1.31
NCCC(O)C(=O)NC1C[C@@H](N)[C@H](O[C@@H]2OC(CN)C(O)C(O)C2O)C(O)[C@H]1O[C@H]1OC(CO)C(O)C(N)C1O (some centres not stated) : 7.58
CC(C)=CCC/C(C)=C/COc1ccc2ccc(=O)oc2c1 : -1.25
OCC1O[C@H](OC2C(CO)O[C@@](O)(CO)C2O)C(O)C(O)C1O (some centres not stated) : 5.94
O=c1[nH]c(=O)n([C@@H]2O[C@H](CO)[C@@H](O)[C@H]2O)cc1Br : -8.5
C/C(=C\CO)CCC(C)CCCC(C)CCCC(C)C (configuration not stated) : 6.09
CCC1OC(=O)C(C)[C@@H](O[C@H]2C[C@@](C)(OC)C(O)C(C)O2)C(C)[C@@H](O[C@@H]2OC(C)CC(N(C)C)C2O)[C@](C)(O)CC(C)/C(=N\OCOCCOC)[C@H](C)C(O)[C@]1(C)O (some centres not stated) : 7.24
CN(C)CCc1c[nH]c2ccc(CC3COC(=O)N3)cc12 (configuration not stated) : 10.6
C[C@@H]1CCC2[C@](C)(CO)C(O)CC[C@@]2(C)[C@@]12CC[C@](CO)(CCO)O2 (some centres not stated) : 5.37
COC(=O)N/N=C/C1=C[N+](=O)c2ccccc2[N+]1=O : 12.7

###

- Tested on: C2A
- EXPERIMENT DESCRIPTION: qHTS profiling for inhibitors of Plasmodium falciparum proliferation (AID 504749); further: nearly all actives have a fitted effect of over 60% in size
- CONDITION INFO: P. falciparum in erythrocytes, SYBR Green DNA, 72 h; series mostly up to 12.8 µM
Records with an inconclusive call do not appear. The source made the active and inactive calls. The call rests on the fitted dose curve; in most records, active means well fitted inhibition curve with a large enough effect; inconclusive means small, poorly fitted or top-dose-only effect; inactive means flat fitted curve, though single readings scatter.
Classes used: true for active, false for inactive

Cc1ccc(S(=O)(=O)NC(=O)NN2C[C@H]3CCC[C@@H]3C2)cc1 : false
CC(=O)OC1CCC2C3CCc4cc(O)ccc4C3CCC12C (stereo not given) : false
CCCC(=O)O[C@]1(C(=O)CO)CCC2[C@@H]3CCC4=CC(=O)CC[C@]4(C)C3C(O)C[C@]21C (stereo not given in full) : false
CN1CC(=O)N=C1N : false
C/C1=C2N=C(/C=C3N=C(/C(C)=C4\[N-]C(C)(C5N=C1C(C)(CCC(=O)NCC(C)OP(=O)([O-])O[C@H]1C(O)C(n6cnc7cc(C)c(C)cc76)O[C@@H]1CO)C5CC(N)=O)C(C)(CC(N)=O)C4CCC(N)=O)C(C)(CC(N)=O)C\3CCC(N)=O)C(C)(C)C/2CCC(N)=O.[CH2-]C1OC(n2cnc3c(N)ncnc32)C(O)C1O.[Co] (stereo not given in full) : false
COCC(=O)Nc1c(I)c(C(=O)NC[C@@H](O)CO)c(I)c(C(=O)N(C)C[C@@H](O)CO)c1I : false
O=C(N/N=C\c1ccc([N+](=O)[O-])o1)c1ccc(O)cc1 : true
COc1ccc(CC(N)C(=O)NC2C(CO)OC(n3cnc4c(N(C)C)ncnc43)C2O)cc1 (stereo not given) : true
CO[C@@H]1C[C@H](O[C@H]2[C@@H](C)[C@H](O[C@@H]3O[C@@H](C)C[C@@H](N(C)C)[C@@H]3OC(C)=O)[C@H](C)C[C@]3(CO3)C(=O)[C@H](C)[C@H](OC(C)=O)[C@H](C)[C@H](C)OC(=O)[C@@H]2C)O[C@H](C)[C@@H]1OC(C)=O : false
CC[C@H]1NC(=O)c2cc(S(N)(=O)=O)c(Cl)cc2N1 : false
C=CC1=C(C(=O)O)N2C(=O)[C@@H](NC(=O)/C(=N\OCC(=O)O)c3csc(N)n3)[C@@H]2SC1 : false
C[C@H]1CC[C@]2(OC1)O[C@@H]1C[C@@H]3[C@@H]4CC[C@H]5C[C@@H](O)CC[C@]5(C)[C@@H]4CC(=O)[C@@]3(C)[C@H]1[C@@H]2C : false
CC1(C)O[C@@H]2C[C@H]3[C@H]4C[C@H](F)C5=CC(=O)CC[C@]5(C)[C@@H]4[C@H](O)C[C@]3(C)[C@]2(C(=O)CO)O1 : false
CCCCC[C@H](O)/C=C\[C@@H]1[C@H](O)CC(=O)[C@@H]1CCCCCCC(=O)O : false
CN(C)CCc1c[nH]c2ccc(CC3COC(=O)N3)cc12 (stereo not given) : false

From: PubChem BioAssay (NCATS)
